Record form. Attribute: cytotoxicity at 70.5 h. Fill in for each entry.
Assay: Human HepG2 cell viability assay in 384 well format
Format: toxicity, cell-based
Set-up: dose 125 nL, time 70.5 hour; concentration not given beside the values
Conditions: HepG2 cells, read-out: Inhibition
# value in %; strip the unit string

q: Using the record for CCOC1CCCN(C(=O)c2sccc2-n2cnnn2)C1 (centres undefined) , report its cytotoxicity at 70.5 h.
a: -2.74

q: Using the record for `Cc1cc(C(=O)N2CCCC2)ccc1NCC(=O)N1CCOCC1` , report its cytotoxicity at 70.5 h.
a: -6.05

q: Using the record for `COc1cc(F)c(NC(=O)N(C)CCNC(=O)N(C)C)cc1F` , report its cytotoxicity at 70.5 h.
a: -0.221

q: Using the record for `CCCC(=O)N1CCC(Nc2ncc(Br)cn2)CC1` , report its cytotoxicity at 70.5 h.
a: 0.868

----------
Record form. Attribute: cytotoxicity at 70.5 h. Fill in for each entry.
Assay: Human HepG2 cell viability assay in 384 well format
Format: toxicity, cell-based
Parameters: dose 125 nL, time 70.5 hour; concentration not given beside the values
Settings: HepG2 cells, read-out: Inhibition
# value in %; strip the unit string

q: Using the record for CCc1ocnc1C(=O)N1CCC2(CCCN(CC(C)(C)C)C2=O)C1 (stereo not drawn) , report its cytotoxicity at 70.5 h.
a: -6.31

q: Using the record for CS(=O)(=O)NCC1CCCN(C(=O)c2ccc(F)c(F)c2)C1 (stereo not drawn) , report its cytotoxicity at 70.5 h.
a: -1.98

q: Using the record for Cc1noc(C)c1CN1CCC2(COCc3cnc(N(C)C)nc32)C1 (stereo not drawn) , report its cytotoxicity at 70.5 h.
a: -3.18

q: Using the record for `CC(C)N(C)C(=O)c1ccc(CNc2cncc(Cl)n2)cc1` , report its cytotoxicity at 70.5 h.
a: -115

q: Using the record for Cc1cc(C)cc(OCCC(=O)N2CCCC(n3cncn3)C2)c1 (stereo not drawn) , report its cytotoxicity at 70.5 h.
a: -15.5

q: Using the record for CCn1ncnc1C(C)Nc1cc(C)c2ccc(SC)cc2n1 (stereo not drawn) , report its cytotoxicity at 70.5 h.
a: -11.1

q: Using the record for `O=C(CN1CCc2cncnc2C1)NCCOc1cccc(Cl)c1` , report its cytotoxicity at 70.5 h.
a: -4.17

q: Using the record for `CCN(C)C(=O)c1coc(COc2ccccc2)n1` , report its cytotoxicity at 70.5 h.
a: -4.16

----------
Experiment: Human HepG2 cell viability assay in 384 well format
Type: toxicity, cell-based
Parameters: dose 125 nL, time 70.5 hour; concentration not given beside the values
Settings: HepG2 cells, read-out: Inhibition
observed-property: cytotoxicity at 70.5 h (%)
# value in %; strip the unit string

q: Using the record for `Cc1ccc(N2N=C(C(=O)N(C)Cc3ccco3)NCC2=O)cc1` , report its cytotoxicity at 70.5 h.
a: 4.87

q: Using the record for `Cc1cc(N(C)Cc2noc(C)n2)n2nc(C)c(C)c2n1` , report its cytotoxicity at 70.5 h.
a: -8.45

q: Using the record for `O=C(C1CCC1)N1CCO[C@@H]2CNC[C@@H]21` , report its cytotoxicity at 70.5 h.
a: 12.9

q: Using the record for `CCOc1ccccc1CN1CCc2nc3ccsc3c(=O)n2CC1` , report its cytotoxicity at 70.5 h.
a: -7.1

q: Using the record for Cc1cc(N2CCC(O)(CN(C)C(=O)CCCN)C2)c2cnccc2n1 (stereo not given) , report its cytotoxicity at 70.5 h.
a: -0.861

q: Using the record for CC(O)CN(CC(=O)NC(=O)NC1CC1)c1ccccc1 (stereo not given) , report its cytotoxicity at 70.5 h.
a: -11

q: Using the record for `COc1ccc(CCN2CC(n3nc(C)cc3C)C2)cc1` , report its cytotoxicity at 70.5 h.
a: -16.5

q: Using the record for `Cc1cc(C)c(CNC(=O)N2CCN(c3ccccn3)CC2)c(=O)[nH]1` , report its cytotoxicity at 70.5 h.
a: 0.786

q: Using the record for `CNC(=O)[C@@H]1C[C@H]2CN(Cc3ccco3)C[C@H]2N1C` , report its cytotoxicity at 70.5 h.
a: -15.3

q: Using the record for CC(NC(=O)C1=NN(C)C(=O)CC1)c1ccccc1Cl (stereo not given) , report its cytotoxicity at 70.5 h.
a: -96.4

q: Using the record for `O=C(Cc1cccc(F)c1)NCCNCc1ccco1` , report its cytotoxicity at 70.5 h.
a: 19.4

q: Using the record for O=C(NCc1ccccn1)NC1CCOc2ccccc21 (stereo not given) , report its cytotoxicity at 70.5 h.
a: 20.6

q: Using the record for `CCS(=O)(=O)NCc1cc(Br)c(OC)c(OC)c1` , report its cytotoxicity at 70.5 h.
a: -8.56

q: Using the record for `CNC(=O)c1cn2cc(-c3cccc(Cl)c3)n(CC=C(C)C)c(=O)c2n1` , report its cytotoxicity at 70.5 h.
a: -5.75

q: Using the record for `O=C(CSc1ccc2c(c1)OCCO2)NS(=O)(=O)c1ccccc1Br` , report its cytotoxicity at 70.5 h.
a: -6.54

q: Using the record for `CSc1ccccc1CN1C[C@@H]2CC[C@H](C1)N(CC1CC1)C2=O` , report its cytotoxicity at 70.5 h.
a: 26.6

q: Using the record for CCCc1nc(CN2CCN(CC(O)c3ccccc3)CC2)no1 (stereo not given) , report its cytotoxicity at 70.5 h.
a: -0.214

q: Using the record for `CCOCc1ccc(NC(=O)N2CCOC3(CCC3)C2)cc1` , report its cytotoxicity at 70.5 h.
a: -5.85

q: Using the record for O=C(NCCc1cccc(O)c1)NC1CCN(c2ccccc2)C1=O (stereo not given) , report its cytotoxicity at 70.5 h.
a: 1.16

q: Using the record for CC1CN(C)c2ccccc2CN1C(=O)NCc1ccon1 (stereo not given) , report its cytotoxicity at 70.5 h.
a: -0.0778

q: Using the record for Cc1ccc(OC2CCN(C(=O)C(C)Cn3cccn3)CC2)cc1 (stereo not given) , report its cytotoxicity at 70.5 h.
a: 0.0943

q: Using the record for `Cc1cnccc1-n1nc(C(C)C)nc1CS(C)(=O)=O` , report its cytotoxicity at 70.5 h.
a: -9.46

q: Using the record for `CCc1cc(NCCCN(C)C2CCCC2)ncn1` , report its cytotoxicity at 70.5 h.
a: -11.3

q: Using the record for `CN1C[C@H](O)[C@]2(CCN(Cc3ccc(OC(F)(F)F)cc3)C2)S1(=O)=O` , report its cytotoxicity at 70.5 h.
a: -1.23

q: Using the record for COc1cccc(NC(=O)NC(C)c2ccc3c(c2)CC(=O)N3)c1 (stereo not given) , report its cytotoxicity at 70.5 h.
a: -3.09
